Target: Virion infectivity factor (Human immunodeficiency virus type 1 group M subtype B (isolate BH10)) + Virion infectivity factor (Human immunodeficiency virus type 1 group M subtype B (isolate BRU/LAI)) + Virion infectivity factor (Human immunodeficiency virus type 1 group M subtype B (isolate PCV12)) + Virion infectivity factor (Human immunodeficiency virus type 1 group M subtype B (isolate HXB2)) + DNA dC->dU-editing enzyme APOBEC-3G (Homo sapiens) (UniProt P69720+P69721+P69722+P69723+Q9HC16)
Experiment: inhibitors of Vif binding to APOBEC3G peptide, primary screen, biochemical, TR-FRET, GST-Vif 1-94, biotin-A3G peptide, dose response retest (AID 1117319);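 also: Vif residues 1-94 fused to GST binding biotinylated APOBEC3G peptide 110-148; 0% = full assay without inhibitor and 100% = GST in place of GST-Vif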
Settings: hits give high values
Screen size: about 260,000 compounds; about 1,500 (0.58%) were called active. About 5% were inconclusive and are not listed. The list is a sample of the results. Entries with a potency or affinity are not part of this list.
Measured property: inhibition (%)

Molecule | Units text | Measurement
CNCc1ccccc1OCc1ccc(F)cc1 | % | -4.9
N#CCN1C(=O)C(=O)N(Cc2cccc(C(F)(F)F)c2)C1=O | % | -1.35
COc1ccc(-n2nnc3c(=O)n(Cc4cc(C)ccc4C)cnc32)cc1 | % | -0.91
COc1ccccc1-c1nn(-c2ccccc2)cc1C(=O)NCC(c1ccco1)N1CCCC1 (stereo not given) | % | 1.07
Cc1c(C)c(C)c(CN2CCSCC2)c(C)c1C | % | 21.2
CC1S/C(=N/N=C/c2ccco2)N(Cc2ccccc2)C1=O (stereo not given) | % | 4.75
COc1cc(C(C)=O)ccc1OCC(=O)N1CCCC1c1ccc2c(c1)OCCCO2 (stereo not given) | % | -2.26
O=C(CN1C(=O)C(=O)N(Cc2ccco2)C1=O)NC1CCCCC1 | % | 10.2
O=C(CN1CCN(Cc2ccccc2)CC1)N/N=C\C=C/c1ccco1 | % | 29.4
COc1ccccc1/C=c1\sc2nc(-c3ccco3)nn2c1=O | % | 31.4
Cc1cc2cc(C(=O)N3CCc4c([nH]c5ccccc45)C3c3ccccn3)ccc2o1 (stereo not given) | % | 10.8
O=C(Nc1ccc(N2CCOCC2)cc1)Nc1ccc2nc(-c3ccco3)c(-c3ccco3)nc2c1 | % | 16
O=C1CC(CSc2ccc(Cl)cc2)=NN1 | % | -2.88
NC(=O)c1cc(N)ccc1N1CCCCC1 | % | -6.02
Nc1cc(S(=O)(=O)O)cc2ccc(S(=O)(=O)O)cc12 | % | 0.1
COc1ccccc1/C=C/C=c1\sc2nc(=O)c(Cc3ccccc3)nn2c1=O | % | 26.2
O=C1CS/C(=N/N=C/c2ccco2)N1Cc1ccc(F)cc1 | % | 10.9
CSCCC(NC(=O)c1ccccc1)C(=O)NCCCSc1ccccc1 (stereo not given) | % | -3.49
O=P(c1ccccc1)(c1ccccc1)c1cc(S(=O)(=O)O)ccc1O | % | 26.4
COCC(C)OC(=O)c1c(N)n(-c2ccc(OC)c(OC)c2)c2nc3ccccc3nc12 (stereo not given) | % | 7.95
CCCOc1ccc(/C=c2\sc3ncnn3c2=O)cc1 | % | 3.82
OCCCNC(=S)Nc1ccc2nc(-c3ccccn3)c(-c3ccccn3)nc2c1 | % | 16.7
Cc1cccc(N/N=C/c2ccncc2)c1 | % | 4.59
O=Nc1c(O)ccc2cc(S(=O)(=O)O)ccc12 | % | 24.3
O=C(Nc1ccc2nsnc2c1)NC1CCCCC1 | % | -12.3
O=C(COC(=O)COc1cccc(Br)c1)NCc1ccc2c(c1)OCO2 | % | -4.12
CCN(CC)S(=O)(=O)c1cccc(C(=O)N/N=C/c2cc(OC)c(O)c(OC)c2)c1 | % | 1.27
CCOCCCNC(=O)Cn1cnc2c(cnn2-c2ccc(F)cc2)c1=O | % | -2.53
COCCNC(=O)Nc1ccc2nc(-c3cccs3)c(-c3cccs3)nc2c1 | % | 13.9
O=C(/C(=C(\[O-])c1ccccc1)[n+]1ccc2ccccc2c1)c1ccc(Cl)cc1 | % | -6.22
CC(=O)N1CCN(C(=O)CCNC(=O)c2ccc(Br)cc2)CC1 | % | 0.92
O=C(Nc1ccc2nc(-c3cccs3)c(-c3cccs3)nc2c1)NC1CC1 | % | -3.31
Cc1cc(C)c(NC(=O)CN(C)CC(=O)N(C)CC(=O)Nc2c(Cl)cccc2Cl)c(C)c1 | % | -11.3
CCn1c(C)nc2cc(C(=O)N/N=C/c3ccccc3)ccc21 | % | 4.16
O=C(NCCO)Nc1ccc2nsnc2c1 | % | 13.2
CSCCC(NC(=O)c1ccco1)C(=O)NCCc1ccc(Cl)cc1 (stereo not given) | % | -15.8
CC(C)CCNC(=O)C(=O)NCc1ccccc1 | % | 21.7
COc1cccc(-c2cc3c(=O)n(-c4ccccc4)c(=S)[nH]c3s2)c1 | % | -16.9
CN(C)S(=O)(=O)c1cccc(NC(=S)N/N=C/c2cc(Br)ccc2O)c1 | % | 9.46
O=C1C=C(Nc2ccccc2)C(=O)c2ccccc21 | % | 1.37
Cc1onc(-c2c(F)cccc2Cl)c1C(=O)N1CCOC12CCCCC2 | % | -10.5
CC(C)(C)NC(=O)C(c1ccc(F)cc1)N(Cc1ccco1)C(=O)CCC(=O)Nc1nccs1 (stereo not given) | % | 5.5
CCOC(=O)N1C2=NC(C(=O)OC)=C(C(=O)OC)[C@@H]3Nc4ccccc4[C@]23C[C@H]1C(=O)OC | % | 4.32
Cc1nn(CC(=O)NC2CCS(=O)(=O)C2)c(C)c1[N+](=O)[O-] (stereo not given) | % | -7.13
CC1S/C(=N/N=C/c2ccco2)N(Cc2ccc(F)cc2)C1=O (stereo not given) | % | 2.84
